# experimentSummary: chemical genetic growth profiling, strain panel (AID 1159580);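 note: tested at 20 µM; growth read once vehicle control cultures reached saturation at 30 °C; 1 = growth at the plate median or of vehicle wells; lower values mean less growth of the strain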
# testContext: S. cerevisiae deletion strains, growth OD, locus YDR297W, strain sur2, hits give low values
Out of some 5,500 compounds screened, about 2,000 (36%) were called active. Not shown: some 18% with an inconclusive outcome. The list shows a part of the results.
Mark each entry yes (1) if its normalized growth sits below 1, and no (0) for all others.

Challenge: Take the molecule "COc1cccc([C@]2(O)CCCC[C@H]2CN(C)C)c1" and say whether its normalized growth is less than 1.
Response given: yes (1)

Challenge: Take the molecule "COc1cc(O)c2c(=O)cc(C)oc2c1CC=C(C)C" and say whether its normalized growth is less than 1.
Response given: yes (1)

Challenge: Take the molecule COC(=O)[C@@H]1C(O)CC[C@H]2CN3CCc4c([nH]c5ccccc45)[C@@H]3C[C@@H]21 (stereo partly specified) and say whether its normalized growth is less than 1.
Response given: no (0)

Numbers sourced from PubChem BioAssay AID1159580.
